- ASSAY_NOTES: Amount of toxicant remaining in the test container after membrane diffusion raft tests
- Format: physicochemical
- Design: key: 0: empty or trace; +: some; + +: ample
- MEASUREMENT_CONTEXT: after completion of membrane diffusion raft tests
QUANTITY_MEASURED: Contents at the end of test (amount of toxicants remaining in the test container)

INSERT INTO assay_data (entry_smiles, value) VALUES
  ('CCCCCCn1sc(Cl)c(Cl)c1=O', 0),
  ('CCCCCCCCCCn1sc(Cl)c(Cl)c1=O', '+ +'),
  ('Cc1c(Cl)sn(C2CCCCC2)c1=O', '+'),
  ('CCCCCCCCn1sccc1=O', 0),
  ('O=c1cc(Cl)sn1-c1ccc(Oc2ccccc2)cc1', '+ +'),
  ('O=c1c(Cl)c(Cl)sn1C1CCCCC1', '+'),
  ('CCCCCCCCCCCCCCCCCCn1sccc1=O', '+ +'),
  ('CCCCCCCCCCn1scc(Br)c1=O', '+'),
  ('O=c1c(Cl)c(Cl)sn1-c1ccc(Cl)cc1', '+ +'),
  ('COc1c(Cl)cccc1-n1sc(Cl)cc1=O', '+ +');

List Contents at the end of test (amount of toxicants remaining in the test container) for every entry below, keeping the order given.
1. O=c1c(Br)csn1-c1ccc(Cl)cc1
2. CCCCCCCCCCn1sc(Cl)c(Br)c1=O

["+ +", "+ +"]

List Contents at the end of test (amount of toxicants remaining in the test container) for every entry below, keeping the order given.
1. O=c1c(Cl)c(Cl)sn1Cc1ccc(Cl)cc1
2. O=c1c(Br)c(Br)sn1C1CCCCC1
3. CCCCCCCCCCn1sc(Br)c(Br)c1=O
4. O=c1c(Cl)c(Cl)sn1-c1ccccc1
5. O=c1ccsn1-c1ccccc1
6. Cc1c(Cl)sn(-c2ccccc2C(F)(F)F)c1=O
7. CCCCn1sc(Cl)c(Cl)c1=O

1: + +; 2: +; 3: + +; 4: + +; 5: 0; 6: +; 7: +

List Contents at the end of test (amount of toxicants remaining in the test container) for every entry below, keeping the order given.
1. CC(C)(C)CC(C)(C)n1sc(Cl)c(Cl)c1=O
2. Cc1c(Cl)sn(-c2ccccc2)c1=O
3. O=c1c(Cl)csn1Cc1ccc(Cl)cc1
4. Cc1c(Cl)sn(-c2ccc(Oc3ccccc3)cc2)c1=O
5. CCCCCCCCCCCCn1sc(Cl)c(Cl)c1=O
6. CCCCCCCCn1sc(Cl)c(Br)c1=O
7. Cc1c(Cl)sn(-c2cccc(Cl)c2)c1=O

+ +
+
+ +
+ +
+ +
+
+ +

Need Contents at the end of test (amount of toxicants remaining in the test container), item `Cc1c(Cl)sn(Cc2ccc(Cl)cc2)c1=O`
+ +

These measurements were taken from patent US4127687A.
